- Tested on: CCRIS mutagenicity, Ames/micronucleus/aberration tests
- Assay comment: CCRIS mutagenicity studies
- Measurement setup: Test System: AMES SALMONELLA TYPHIMURIUM; Strain/Indicator: TA98; Metabolic Activation: HAMSTER, LIVER, S-9; Method: STANDARD PLATE
Calls of active or inactive are those of the source. No rule for the calls is given here.
Outcome codes: active, inactive

>  <Smiles data>
Nc1ncc([N+](=O)[O-])s1

>  <Class>
inactive

$$$$
>  <Smiles data>
COc1ccc(N)c(OC)c1

>  <Class>
inactive

$$$$
>  <Smiles data>
Nc1ccc2c(c1)Cc1cc([N+](=O)[O-])ccc1-2

>  <Class>
active

$$$$
>  <Smiles data>
Nc1ccc(-c2ccc(N)cc2)cc1

>  <Class>
active

$$$$
>  <Smiles data>
CCN(N=O)c1ccccc1

>  <Class>
inactive

$$$$
>  <Smiles data>
CC(=O)Nc1ccc(C(=O)CCl)cc1

>  <Class>
active

$$$$

###

- Test system: CCRIS mutagenicity, Ames/micronucleus/aberration tests
- Assay comment: CCRIS mutagenicity studies
- Measurement setup: Test System: AMES SALMONELLA TYPHIMURIUM; Strain/Indicator: TA104; Metabolic Activation: NONE; Method: PREINCUBATION
Active and inactive are the calls of the source. No rule for the calls is given here.
Outcome codes: 1 = active, 0 = inactive

>  <Smiles data>
O=C(OOC(=O)c1ccccc1)c1ccccc1

>  <Study system>
CCRIS mutagenicity, Ames/micronucleus/aberration tests

>  <Class>
0

$$$$
>  <Smiles data>
N[C@@H](CCC(=O)NNc1ccc(CO)cc1)C(=O)O

>  <Study system>
CCRIS mutagenicity, Ames/micronucleus/aberration tests

>  <Class>
0

$$$$
>  <Smiles data>
Cc1ccccc1Br

>  <Study system>
CCRIS mutagenicity, Ames/micronucleus/aberration tests

>  <Class>
0

$$$$
>  <Smiles data>
O=C(Cl)c1ccccc1C(=O)Cl

>  <Study system>
CCRIS mutagenicity, Ames/micronucleus/aberration tests

>  <Class>
1

$$$$
>  <Smiles data>
O=c1[nH]c(=O)n([C@H]2C[C@H](O)[C@@H](CO)O2)cc1I

>  <Study system>
CCRIS mutagenicity, Ames/micronucleus/aberration tests

>  <Class>
0

$$$$
>  <Smiles data>
NCc1cccc(CN)c1

>  <Study system>
CCRIS mutagenicity, Ames/micronucleus/aberration tests

>  <Class>
0

$$$$
>  <Smiles data>
CN(C)c1ccccc1

>  <Study system>
CCRIS mutagenicity, Ames/micronucleus/aberration tests

>  <Class>
0

$$$$
>  <Smiles data>
O=Cc1ccc(Cl)c(Cl)c1

>  <Study system>
CCRIS mutagenicity, Ames/micronucleus/aberration tests

>  <Class>
0

$$$$
>  <Smiles data>
Cc1ccccc1C(=O)Cl

>  <Study system>
CCRIS mutagenicity, Ames/micronucleus/aberration tests

>  <Class>
0

$$$$
>  <Smiles data>
O=CCCCC=O

>  <Study system>
CCRIS mutagenicity, Ames/micronucleus/aberration tests

>  <Class>
1

$$$$
>  <Smiles data>
O=C(O)Cc1ccc(Cl)cc1

>  <Study system>
CCRIS mutagenicity, Ames/micronucleus/aberration tests

>  <Class>
0

$$$$
>  <Smiles data>
CC(C)(C)CC(C)(C)c1ccc(O)cc1

>  <Study system>
CCRIS mutagenicity, Ames/micronucleus/aberration tests

>  <Class>
0

$$$$
>  <Smiles data>
CCCCCCCCCCO

>  <Study system>
CCRIS mutagenicity, Ames/micronucleus/aberration tests

>  <Class>
0

$$$$
>  <Smiles data>
CC(=O)CC(=O)Nc1ccc(C)cc1

>  <Study system>
CCRIS mutagenicity, Ames/micronucleus/aberration tests

>  <Class>
0

$$$$
>  <Smiles data>
C/C(C=O)=C(/Cl)C(=O)O

>  <Study system>
CCRIS mutagenicity, Ames/micronucleus/aberration tests

>  <Class>
1

$$$$
>  <Smiles data>
Nc1nc(=O)n([C@H]2C[C@H](O)[C@@H](CO)O2)cc1CCCl

>  <Study system>
CCRIS mutagenicity, Ames/micronucleus/aberration tests

>  <Class>
0

$$$$
>  <Smiles data>
CCC(C)=O

>  <Study system>
CCRIS mutagenicity, Ames/micronucleus/aberration tests

>  <Class>
0

$$$$
>  <Smiles data>
Nc1nc(=O)n([C@H]2C[C@H](O)[C@@H](CO)O2)cc1I

>  <Study system>
CCRIS mutagenicity, Ames/micronucleus/aberration tests

>  <Class>
0

$$$$
>  <Smiles data>
C/C(C=O)=C\c1ccccc1

>  <Study system>
CCRIS mutagenicity, Ames/micronucleus/aberration tests

>  <Class>
0

$$$$
>  <Smiles data>
O=c1ccc(=O)c2c(=O)c(Cl)c(Cl)c(=O)c1=2

>  <Study system>
CCRIS mutagenicity, Ames/micronucleus/aberration tests

>  <Class>
1

$$$$
>  <Smiles data>
O=C1C=CC(=O)C(c2ccccc2)=C1

>  <Study system>
CCRIS mutagenicity, Ames/micronucleus/aberration tests

>  <Class>
0

$$$$
>  <Smiles data>
O=C1C=CC(=O)c2ccccc21

>  <Study system>
CCRIS mutagenicity, Ames/micronucleus/aberration tests

>  <Class>
1

$$$$
>  <Smiles data>
O=C(O)C=C(C(Cl)Cl)C(Cl)Cl

>  <Study system>
CCRIS mutagenicity, Ames/micronucleus/aberration tests

>  <Class>
0

$$$$
>  <Smiles data>
O=C1C=CC(=O)c2c(O)c(Cl)c(Cl)c(O)c21

>  <Study system>
CCRIS mutagenicity, Ames/micronucleus/aberration tests

>  <Class>
1

$$$$
>  <Smiles data>
Cc1cccc(O)c1

>  <Study system>
CCRIS mutagenicity, Ames/micronucleus/aberration tests

>  <Class>
0

$$$$
>  <Smiles data>
Cc1c2ccccc2cc2ccc3c(c12)C=CC(=O)C3=O

>  <Study system>
CCRIS mutagenicity, Ames/micronucleus/aberration tests

>  <Class>
0

$$$$
>  <Smiles data>
CC(=O)Nc1ccc(S(=O)(=O)Cl)cc1

>  <Study system>
CCRIS mutagenicity, Ames/micronucleus/aberration tests

>  <Class>
0

$$$$
>  <Smiles data>
CC=C(Cl)Cl

>  <Study system>
CCRIS mutagenicity, Ames/micronucleus/aberration tests

>  <Class>
0

$$$$
>  <Smiles data>
O=C1C=C(Nc2ccccc2)C(=O)c2ccccc21

>  <Study system>
CCRIS mutagenicity, Ames/micronucleus/aberration tests

>  <Class>
0

$$$$

###

- Tested on: CCRIS mutagenicity, Ames/micronucleus/aberration tests
- Assay comment: CCRIS mutagenicity studies
- Measurement setup: Test System: AMES SALMONELLA TYPHIMURIUM; Strain/Indicator: TA1538; Metabolic Activation: RAT, LIVER, S-9, AROCLOR 1254; Method: STANDARD PLATE
Activity calls are given as the source filed them. How the calls were made is not given here.

>  <Compound>
Cc1cc(N)c([N+](=O)[O-])c(C)c1N

>  <Study system>
CCRIS mutagenicity, Ames/micronucleus/aberration tests

>  <mutagenic call>
inactive; negative

$$$$
>  <Compound>
c1ccccc1

>  <Study system>
CCRIS mutagenicity, Ames/micronucleus/aberration tests

>  <mutagenic call>
inactive; negative

$$$$
>  <Compound>
C=CCN1CCC=C2c3nc(NC(C)=O)sc3CCC21 (configuration not stated)

>  <Study system>
CCRIS mutagenicity, Ames/micronucleus/aberration tests

>  <mutagenic call>
inactive; negative

$$$$
>  <Compound>
COc1cc(-c2ccc(N/N=C3\C=C(S(=O)(=O)O)c4ccccc4C3=O)c(OC)c2)ccc1N/N=C1/C=C(S(=O)(=O)O)c2ccccc2C1=O

>  <Study system>
CCRIS mutagenicity, Ames/micronucleus/aberration tests

>  <mutagenic call>
inactive; negative

$$$$
>  <Compound>
COc1cc(N)c(OC)cc1N

>  <Study system>
CCRIS mutagenicity, Ames/micronucleus/aberration tests

>  <mutagenic call>
active; positive

$$$$
>  <Compound>
COC(=O)c1ccc(O)cc1

>  <Study system>
CCRIS mutagenicity, Ames/micronucleus/aberration tests

>  <mutagenic call>
inactive; negative

$$$$
>  <Compound>
NCc1cccc(CN)c1

>  <Study system>
CCRIS mutagenicity, Ames/micronucleus/aberration tests

>  <mutagenic call>
inactive; negative

$$$$
>  <Compound>
O=c1cc(-c2ccc(O)cc2)oc2cc(O)cc(O)c12

>  <Study system>
CCRIS mutagenicity, Ames/micronucleus/aberration tests

>  <mutagenic call>
inactive; negative

$$$$
>  <Compound>
C=CC(=O)OC(C)(C)C

>  <Study system>
CCRIS mutagenicity, Ames/micronucleus/aberration tests

>  <mutagenic call>
inactive; negative

$$$$
>  <Compound>
COc1cc2c(c3oc4cccc(O)c4c(=O)c13)[C@@H]1C=CO[C@@H]1O2

>  <Study system>
CCRIS mutagenicity, Ames/micronucleus/aberration tests

>  <mutagenic call>
active; positive

$$$$
>  <Compound>
O=C(Cl)c1ccc([N+](=O)[O-])cc1

>  <Study system>
CCRIS mutagenicity, Ames/micronucleus/aberration tests

>  <mutagenic call>
inactive; negative

$$$$
>  <Compound>
Cc1cc(C)c(S(=O)(=O)O)cc1N=Nc1cc(S(=O)(=O)O)c2ccccc2c1O

>  <Study system>
CCRIS mutagenicity, Ames/micronucleus/aberration tests

>  <mutagenic call>
inactive; negative

$$$$
